# protocol-text: Stability of peptides in serum, remaining activity read in intestinal cells
# Type: in vitro ADME, Bovine
# setup-conditions: octapeptides; fraction of peptide activity left after 10 min of incubation in serum at 37° C. compared with undigested sample
No end group written: not given here.
Criterion: Stability in serum (activity remaining) strictly under 0.09. Met: Criterion met. Not met: Criterion not met.

The following sequences have reported results that may help.
sequence-string	group-label
WSDKPYIL [Peptide 36054, W SDKPYIL]	Criterion met
ISDKPYIL [Peptide 36043, I SDKPYIL]	Criterion not met
KSDKPYIL [Peptide 36044, K SDKPYIL]	Criterion met

query: Strictly below 0.09 in Stability in serum (activity remaining)? PSDKPYIL [Peptide 36048, P SDKPYIL]
result: Criterion met

query: Strictly below 0.09 in Stability in serum (activity remaining)? QSDKPYIL [Peptide 36049, Q SDKPYIL]
result: Criterion met

query: Strictly below 0.09 in Stability in serum (activity remaining)? NSDKPYIL [Peptide 36047, N SDKPYIL]
result: Criterion met
